# measuredTarget: equine FcRn (large alpha subunit p51) / equine beta-2-microglobulin complex, biotinylated (equine) (UniProt P30441)
# protocol: SPR (Biacore), pH 6
quantityKind: Kd (nM)
Numbers only, in nM.

equine IgG1 M428Q (antibody, part only; not given: Variable domains, not shown: another chain or arm of the molecule) constant: ASTTAPKVFALAPGCGTTSDSTVALGCLVSGYFPEPVKVSWNSGSLTSGVHTFPSVLQSSGFYSLSSMVTVPASTWTSETYICNVVHAASNFKVDKRIEPIPDNHQKVCDMSKCPKCPAPELLGGPSVFIFPPNPKDTLMITRTPEVTCVVVDVSQENPDVKFNWYMDGVEVRTATTRPKEEQFNSTYRVVSVLRIQHQDWLSGKEFKCKVNNQALPQPIERTITKTKGRSQEPQVYVLAPHPDELSKSKVSVTCLVKDFYPPEINIEWQSNGQPELETKYSTTQAQQDSDGSYFLYSKLSVDRNRWQQGTTFTCGVQHEALHNHYTQKNVSKNPGK	32.9
equine IgG1 Y436E (antibody, part only; not given: variable domains, not shown: another chain or arm of the molecule) constant: ASTTAPKVFALAPGCGTTSDSTVALGCLVSGYFPEPVKVSWNSGSLTSGVHTFPSVLQSSGFYSLSSMVTVPASTWTSETYICNVVHAASNFKVDKRIEPIPDNHQKVCDMSKCPKCPAPELLGGPSVFIFPPNPKDTLMITRTPEVTCVVVDVSQENPDVKFNWYMDGVEVRTATTRPKEEQFNSTYRVVSVLRIQHQDWLSGKEFKCKVNNQALPQPIERTITKTKGRSQEPQVYVLAPHPDELSKSKVSVTCLVKDFYPPEINIEWQSNGQPELETKYSTTQAQQDSDGSYFLYSKLSVDRNRWQQGTTFTCGVMHEALHNHETQKNVSKNPGK	33.8
equine IgG1 T286R (antibody, part only; not given: variable domains, not shown: another chain or arm of the molecule) constant: ASTTAPKVFALAPGCGTTSDSTVALGCLVSGYFPEPVKVSWNSGSLTSGVHTFPSVLQSSGFYSLSSMVTVPASTWTSETYICNVVHAASNFKVDKRIEPIPDNHQKVCDMSKCPKCPAPELLGGPSVFIFPPNPKDTLMITRTPEVTCVVVDVSQENPDVKFNWYMDGVEVRRATTRPKEEQFNSTYRVVSVLRIQHQDWLSGKEFKCKVNNQALPQPIERTITKTKGRSQEPQVYVLAPHPDELSKSKVSVTCLVKDFYPPEINIEWQSNGQPELETKYSTTQAQQDSDGSYFLYSKLSVDRNRWQQGTTFTCGVMHEALHNHYTQKNVSKNPGK	20.5

Okay, next one:
Reported Kd ( equine IgG4 D312E (antibody, part only; not given: variable domains, not shown: another chain or arm of the molecule) constant: ASTTAPKVFPLASHSAATSGSTVALGCLVSSYFPEPVTVSWNSGALTSGVHTFPSVLQSSGLYSLSSMVTVPASSLKSQTYICNVAHPASSTKVDKKIVIKECNGGCPAECLQVGPSVFIFPPKPKDVLMISRTPTVTCVVVDVGHDFPDVQFNWYVDGVETHTATTEPKQEQFNSTYRVVSVLPIQHKEWLSGKEFKCKVNNKALPAPVERTISKPTGQPREPQVYVLAPHRDELSKNKVSVTCLVKDFYPTDIDIEWKSNGQPEPETKYSTTPAQLDSDGSYFLYSKLTVETNRWQQGTTFTCAVMHEALHNHYTEKSVSKSPGK ) = 50.2
